target: CIB1 and αIIb interaction (CIB1-GST : F-αIIb peptide) (Homo sapiens, UniProt Q99828); construct: made in house; host or cells: BL-21 plus RIL cells (E. coli); test: FP assay, 1536-well qHTS format (primary and confirmatory screen); format: binding; settings: qHTS primary screen hits, Table S2; read-out: IC50
Sequence (Q99828 whole entry): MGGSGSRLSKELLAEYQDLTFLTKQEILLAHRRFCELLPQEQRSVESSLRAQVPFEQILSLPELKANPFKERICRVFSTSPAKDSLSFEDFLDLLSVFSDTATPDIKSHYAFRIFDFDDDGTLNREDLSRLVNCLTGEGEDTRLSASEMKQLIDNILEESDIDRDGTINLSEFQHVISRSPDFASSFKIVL
Recorded pIC50 values for a group of compounds are listed next.
// field semantics: pIC50 = negative decimal log of concentration (mol/L)

Using the record for O=C(O)C(F)(F)F.c1nc(NCCc2c[nH]cn2)c2ccc(-c3ccc4c(c3)OCO4)cc2n1 , report its pIC50.
4.10

More entries:
Using the record for O=S(=O)(Nc1cc(O)cc2cccnc12)c1ccc(Cl)s1 , report its pIC50.
4.30

Same question for Cl.Nc1cc(C(F)(F)F)ccc1S please.
4.55

Same question for CC[n+]1c(-c2ccccc2)c2cc(N)ccc2c2ccc(N)cc21.[Br-] please.
4.25

Same question for CCC(=O)NC(c1ccco1)c1cc(Br)c2cccnc2c1O (centres unmarked) please.
4.25

Same question for CC(=O)NCc1ccc(-c2csc(Nc3cccc(C)c3)n2)o1.O=C(O)C(F)(F)F please.
4.35

Same question for CN1CCCN=C1/C=C/c1cccs1 please.
4.62

Same question for CCCCCCCCCCCC[N+](C)(C)Cc1ccccc1.[Cl-] please.
4.30

Same question for C[C@H]1COC2=C1C(=O)C(=O)c1c2ccc2c1CCCC2(C)C please.
4.52

Same question for CCOC(=O)c1nnc(NS(=O)(=O)c2ccc(NC(=O)Cc3ccc(Cl)c(Cl)c3)cc2)s1.O=C(O)C(F)(F)F please.
4.50

Same question for O=C(O)C(F)(F)F.OCc1ccc(-c2ccc3ncnc(NCc4ncc[nH]4)c3c2)o1 please.
4.25

Same question for Nc1ccc(-c2nc3ccc(-c4nc5cc(N)ccc5[nH]4)cc3[nH]2)cc1 please.
4.40
